The compounds below each have a reported IC50 tested on UniProt O75116; the values come from various publications.

Solved cases (5 shown):
>  <Compound>
O=c1[nH]nc([C@H]2CC3(C[C@H](Nc4ccccc4[N+](=O)[O-])C3)C2)c2ccccc12 (some centres unmarked)

>  <IC50>
15.1 to 100 nM

$$$$
>  <Compound>
O=C(c1ccc2c(c1)CN(c1nccc(Nc3ccc(-c4cn[nH]c4)cc3)n1)CC2)N1CC(F)(F)C1

>  <IC50>
500 to 4500 nM

$$$$
>  <Compound>
CNc1nc(N2CCN(Cc3cc(F)cc(OC)c3)C2=O)ccc1-c1cn[nH]c1

>  <IC50>
2.1 to 20 nM

$$$$
>  <Compound>
Cn1cc(C(=O)Nc2ccnc(-n3nc(Nc4ccc5[nH]ncc5c4Cl)c4ccccc43)c2)cn1

>  <IC50>
> 10000 nM

$$$$
>  <Compound>
COc1cc(C(C)N2CCN(c3ccc(-c4cn[nH]c4)c(C)n3)C2=O)ccc1F (single isomer, unassigned)

>  <IC50>
200 to 2000 nM

$$$$

Recorded IC50 for O=C1CN(Cc2cc(F)ccc2F)C(=O)N1c1ccc(-c2cn[nH]c2)cc1 with UniProt O75116, please?
200 to 2000 nM

Recorded IC50 for COc1cc(F)cc(Cn2nc(C)n(-c3ccc(-c4cn[nH]c4)cc3)c2=O)c1 with UniProt O75116, please?
250 to 2000 nM

Recorded IC50 for Cc1nc(N2CCC(C#N)C2)sc1C(=O)NC1CC2(C1)CC(c1n[nH]c(=O)c3ccccc13)C2 (centres unmarked) with UniProt O75116, please?
5.1 to 15 nM
